Assay: small-molecule binders of probe aLefty1, primary screen, biochemical, small-molecule microarray, 635/667 nm fluorescence (AID 1153);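 further: score merges spot fluorescence with signal-to-noise ratio from the scanned slide images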
Settings: higher = more signal
outcome-measure: composite z-score

| compound | outcome-measure | experimental-value |
| --- | --- | --- |
| CCCCCN1CC=CC23O[C@@H]4/C=C\CCCOC(=O)C4[C@H]2C(=O)N(C(CO)C(C)C)[C@@H]3C1=O (some centres not stated) | composite z-score | -0.113 |
| COC(=O)[C@@]1(Cc2ccc(OC)cc2)[C@H]2c3cc(C(=O)N4CCCC4)n(Cc4ccsc4Br)c3C[C@H]2CN1C(=O)c1ccccc1 | composite z-score | 0.0429 |
| CCOC(=O)C[C@H]1[C@H](OC(=O)Cc2ccc3c(c2)OCO3)[C@@H](NC(=O)c2ccc3ccccc3c2)c2cc(OCCCO)ccc2N1C(=O)c1ccccc1 | composite z-score | 0.0479 |
| COCCCNC(=O)[C@@]1(Cc2ccccc2)N=C(c2ccc(OCCCO)cc2)O[C@H]1c1ccccc1 | composite z-score | 0.39 |
| COC(=O)[C@@]1(Cc2ccc(F)cc2)[C@H]2c3cc(C(=O)N4CCCC4)n(Cc4cc(C)n(C)n4)c3C[C@H]2CN1C(=O)c1ccccc1 | composite z-score | 0.291 |
| C=CCN1C(=O)[C@@]2(O[C@@H](CCO)[C@H]([Si](C)(C)c3ccc(OC)cc3)[C@H]2C)c2cc(NC(=O)c3ccc(OC)cc3)ccc21 | composite z-score | -0.147 |
| C[C@@]1([C@@H](NC(=O)c2ccccc2)c2ccc(-c3ccccc3)cc2)C[C@H]1C1CCCCC1 | composite z-score | 0.476 |
